These data points were gathered from the supplement of paper PMC7877785.

Parameter self-splicing fitness (ln): see the listing below.
# assayName: self-splicing fitness, log relative to wild type (ln ratio); higher = more splicing; Tetrahymena group I intron in knt gene, E. coli kanamycin selection, DiMSum; sequences stand for … in CUCUCU…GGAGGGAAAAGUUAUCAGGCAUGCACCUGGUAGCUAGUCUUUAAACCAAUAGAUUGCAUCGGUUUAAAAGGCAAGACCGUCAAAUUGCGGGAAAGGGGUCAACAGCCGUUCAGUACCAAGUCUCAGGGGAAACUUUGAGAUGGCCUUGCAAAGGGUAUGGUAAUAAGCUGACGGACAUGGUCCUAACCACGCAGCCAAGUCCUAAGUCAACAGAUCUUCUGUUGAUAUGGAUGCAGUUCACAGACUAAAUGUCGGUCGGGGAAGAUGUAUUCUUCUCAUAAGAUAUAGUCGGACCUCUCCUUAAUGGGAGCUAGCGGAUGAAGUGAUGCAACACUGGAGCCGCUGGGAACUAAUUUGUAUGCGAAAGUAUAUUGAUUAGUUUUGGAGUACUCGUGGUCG;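 note: selection with 25 µg/mL kanamycin versus none on LB agar overnight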
# experimentalConditions: 37 °C
measuredMetric: self-splicing fitness (ln)

1) UCCCAGCAAUAUUACGCGCU | -2.84
2) UAUAAGCAAUAUUACGUGUA | -0.896
3) GUAUAGCAAUAUUACGGCCG | -1.09
4) GAACAGCAAUAUUACGAAGU | -0.944
5) CAUAAGCAAUAUUACGUAUG | -2.74
6) AACAAGCAAUAUUACGGGUC | -1.65
7) ACAUAGCAAUAUUACGUUUG | -2.51
8) CUAGAGCAAUAUUACGGGGC | -2.31
9) CUGCAGCAAUAUUACGACCC | -1.05
10) CCAGAGCAAUAUUACGUGCA | -2.54
11) CGACAGCAAUAUUACGUUUG | -1.19
12) GAAAAGCAAUAUUACGGGCU | -1.72
13) GGCGAGCAAUAUUACGGUGG | -2.07
14) ACAGAGCAAUAUUACGCUCA | -1.26
15) CUGCAGCAAUAUUACGAAUA | -1.3
16) UACUAGCAAUAUUACGCCUA | 0.591
17) ACCGAGCAAUAUUACGCGCU | -1.19
18) AUCUAGCAAUAUUACGCUUG | -1.36
19) UACAAGCAAUAUUACGUGCC | -1.53
20) CGCUAGCAAUAUUACGAACG | -1.1
21) UAGAAGCAAUAUUACGGGCA | -0.144
22) UGAAAGCAAUAUUACGGAUU | -1.09
23) CGUUAGCAAUAUUACGCGAU | -3.12
24) CAUGAGCAAUAUUACGAAGG | -2.05
25) UGAUAGCAAUAUUACGGCGU | -1.22
26) UUGAAGCAAUAUUACGCUGA | -0.574
27) AUGGAGCAAUAUUACGCAUC | -3.29
28) AGGUAGCAAUAUUACGCUUG | -1.04
29) UUGAAGCAAUAUUACGCUCU | -0.916
30) CUAUAGCAAUAUUACGUAUC | -2.48
31) CGCCAGCAAUAUUACGCCUG | -0.608
32) CGGCAGCAAUAUUACGGCCC | 0.163
33) UUCCAGCAAUAUUACGAGAU | -0.948
34) CCAUAGCAAUAUUACGUGAU | -2.76
35) GUCAAGCAAUAUUACGUCCG | -3.83
36) UCAGAGCAAUAUUACGUGCA | -2.1
37) UUGGAGCAAUAUUACGUAAU | -2.38
38) UUCUAGCAAUAUUACGAGUA | -0.0809
39) GAGUAGCAAUAUUACGGAUC | -0.167
40) GGGGAGCAAUAUUACGGCGA | -1.81
41) CUUUAGCAAUAUUACGGUCA | -3.28
42) UGAAAGCAAUAUUACGAUUG | -0.573
43) CUGGAGCAAUAUUACGCACG | -1.08
44) ACACAGCAAUAUUACGCCAU | -1.85
45) AAGGAGCAAUAUUACGACUU | -1.26
46) AUGAAGCAAUAUUACGCGGA | -0.105
47) UUGCAGCAAUAUUACGAACU | -2.11
48) CUGAAGCAAUAUUACGAUGC | -2.86
49) UUGUAGCAAUAUUACGGCAG | 0.374
50) CAGAAGCAAUAUUACGUCCA | -1.44
51) CCGUAGCAAUAUUACGGUGG | -1.1
52) AGCCAGCAAUAUUACGGGAA | -0.667
53) CGCGAGCAAUAUUACGCUGA | -1.78
54) CUCGAGCAAUAUUACGGAAU | -3.23
55) CUAAAGCAAUAUUACGAUUG | -0.596
56) UAUAAGCAAUAUUACGGGUU | -3.53
57) GCAAAGCAAUAUUACGUACA | -0.858
58) CCCGAGCAAUAUUACGAAAC | -0.43
59) GACAAGCAAUAUUACGCUAG | -1.36
60) UUUUAGCAAUAUUACGAACG | 0.449
61) UAGUAGCAAUAUUACGCGUC | -1.88
62) GGCUAGCAAUAUUACGCUAA | -0.34
63) CAUGAGCAAUAUUACGACUG | -0.743
